Measured Target: HDAC 2 (Homo sapiens)
Sequence (Q92769 whole entry): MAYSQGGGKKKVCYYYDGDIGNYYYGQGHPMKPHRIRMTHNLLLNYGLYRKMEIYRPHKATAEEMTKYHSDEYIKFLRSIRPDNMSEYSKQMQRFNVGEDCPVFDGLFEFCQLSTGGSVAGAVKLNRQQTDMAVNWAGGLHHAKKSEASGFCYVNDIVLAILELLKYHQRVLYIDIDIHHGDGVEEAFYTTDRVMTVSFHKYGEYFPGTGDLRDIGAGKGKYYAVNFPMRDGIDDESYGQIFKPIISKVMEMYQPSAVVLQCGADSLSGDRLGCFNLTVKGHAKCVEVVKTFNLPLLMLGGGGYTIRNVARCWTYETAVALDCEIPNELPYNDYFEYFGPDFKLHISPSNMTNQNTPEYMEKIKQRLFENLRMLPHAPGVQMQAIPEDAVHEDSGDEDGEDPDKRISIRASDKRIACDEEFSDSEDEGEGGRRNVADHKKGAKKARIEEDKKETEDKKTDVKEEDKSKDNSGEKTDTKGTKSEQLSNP
Method Summary: enzymatic inhibition of HDAC 2
Type: biochemical
Reported Conditions: HDAC 2, Class I
Measurement Label: pIC50
Answers are plain numbers, as −log10 of the molar value.

What pIC50 value was documented for this molecule, CC(C)[C@@H]1NC(=O)C(C)(C)NC(=O)c2csc(n2)CNC(=O)C[C@@H](/C=C/CCS)OC1=O ?
8.62

====

Measured Target: UniProtKB Q9BY41
Method Summary: enzymatic inhibition of HDAC 8
Assay type: biochemical
Measurement Label: IC50

What IC50 value was documented for this molecule, C/C=C1\NC(=O)[C@@H](CS)NC(=O)[C@@H](C(C)C)NC(=O)C[C@@H](/C=C/CCS)OC(=O)[C@H](C(C)C)NC1=O [Red-FK228, reference compound] ?
> 1000 nM

====

Measured Target: HDAC 11 (Homo sapiens, UniProt Q96DB2)
Sequence (Q96DB2 1-347): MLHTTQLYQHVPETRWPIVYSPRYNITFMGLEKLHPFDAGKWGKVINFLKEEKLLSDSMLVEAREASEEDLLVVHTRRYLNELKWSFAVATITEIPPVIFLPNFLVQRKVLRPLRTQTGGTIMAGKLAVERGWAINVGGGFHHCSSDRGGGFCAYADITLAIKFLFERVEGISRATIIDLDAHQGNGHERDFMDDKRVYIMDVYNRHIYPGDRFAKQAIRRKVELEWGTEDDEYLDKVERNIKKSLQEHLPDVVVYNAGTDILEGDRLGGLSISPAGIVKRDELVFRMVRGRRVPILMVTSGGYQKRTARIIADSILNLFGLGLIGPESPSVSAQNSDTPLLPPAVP
Measurement Label: IC50 (nM)
One number for each entry, in nM.

compound="C/C=C1\\NC(=O)[C@@H](CS)NC(=O)[C@@H](C(C)C)NC(=O)C[C@@H](/C=C/CCS)OC(=O)[C@H](C(C)C)NC1=O [Red-FK228, reference compound]" measurement_label=IC50 units_of_measure=nM readout_value=0.3

Consider now this further compound.
Give recorded IC50 with HDAC 11 (Homo sapiens, UniProt Q96DB2) for the following compound: CC(C)[C@@H]1NC(=O)C(C)(C)NC(=O)c2csc(n2)CNC(=O)C[C@@H](/C=C/CCS)OC1=O [OKI-006]
2.3

====

Measured Target: UniProt:P56524
Method Summary: enzymatic inhibition of HDAC 4
Type: biochemical
Reported Conditions: HDAC 4, Class IIa; read-out: IC50
pIC50: −log10 of the molar value.
Measurement Label: pIC50

What pIC50 value was documented for this compound, CC(C)[C@@H]1NC(=O)C(C)(C)NC(=O)c2csc(n2)CNC(=O)C[C@@H](/C=C/CCS)OC1=O [OKI-006] ?
< 6.00

====

Measured Target: HDAC 9 (Homo sapiens)
Method Summary: enzymatic inhibition of HDAC 9
Assay type: biochemical
Reported Conditions: HDAC 9, Class IIa; read-out: IC50
pIC50: −log10 of the molar value.
Measurement Label: pIC50

Give recorded pIC50 with HDAC 9 (Homo sapiens) for the following compound: CC(C)[C@@H]1NC(=O)C(C)(C)NC(=O)c2csc(n2)CNC(=O)C[C@@H](/C=C/CCS)OC1=O
< 6.00

====

Measured Target: HDAC 2 (Homo sapiens)
Method Summary: enzymatic inhibition of HDAC 2
Type: biochemical
Measurement Label: IC50 (nM)
One number for each entry, in nM.

What IC50 value was documented for this compound, C/C=C1\NC(=O)[C@@H](CS)NC(=O)[C@@H](C(C)C)NC(=O)C[C@@H](/C=C/CCS)OC(=O)[C@H](C(C)C)NC1=O [Red-FK228, reference compound] ?
1

====

Measured Target: HDAC 4 (Homo sapiens)
Sequence (P56524 whole entry): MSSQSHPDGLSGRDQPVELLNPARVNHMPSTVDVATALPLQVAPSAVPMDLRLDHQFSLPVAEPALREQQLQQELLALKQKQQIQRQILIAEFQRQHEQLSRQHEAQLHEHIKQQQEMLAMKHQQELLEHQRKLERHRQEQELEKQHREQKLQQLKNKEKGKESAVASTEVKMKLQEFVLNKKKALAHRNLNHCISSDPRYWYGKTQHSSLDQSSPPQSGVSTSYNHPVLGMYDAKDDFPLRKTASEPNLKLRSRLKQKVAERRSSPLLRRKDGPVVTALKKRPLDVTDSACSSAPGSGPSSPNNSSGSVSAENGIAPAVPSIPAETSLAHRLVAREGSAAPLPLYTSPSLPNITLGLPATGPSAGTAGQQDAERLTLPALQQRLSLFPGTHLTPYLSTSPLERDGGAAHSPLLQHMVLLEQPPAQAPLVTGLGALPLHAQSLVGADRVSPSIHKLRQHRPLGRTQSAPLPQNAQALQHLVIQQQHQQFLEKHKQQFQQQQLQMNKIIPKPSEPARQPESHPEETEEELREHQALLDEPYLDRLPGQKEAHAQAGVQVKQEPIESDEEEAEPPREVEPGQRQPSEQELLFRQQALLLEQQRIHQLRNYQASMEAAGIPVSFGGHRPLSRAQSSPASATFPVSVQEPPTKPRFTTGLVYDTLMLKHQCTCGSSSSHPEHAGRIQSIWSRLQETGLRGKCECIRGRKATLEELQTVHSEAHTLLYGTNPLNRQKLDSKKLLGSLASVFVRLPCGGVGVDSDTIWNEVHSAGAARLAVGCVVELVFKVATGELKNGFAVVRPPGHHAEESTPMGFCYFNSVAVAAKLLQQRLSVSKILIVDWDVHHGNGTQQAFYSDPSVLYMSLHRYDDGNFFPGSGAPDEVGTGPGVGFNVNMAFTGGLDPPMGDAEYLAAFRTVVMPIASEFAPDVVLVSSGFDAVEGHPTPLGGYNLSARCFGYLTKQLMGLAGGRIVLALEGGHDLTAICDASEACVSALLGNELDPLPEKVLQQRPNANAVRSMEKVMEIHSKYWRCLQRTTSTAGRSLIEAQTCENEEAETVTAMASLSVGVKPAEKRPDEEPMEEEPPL
Method Summary: enzymatic inhibition of HDAC 4
Format: biochemical
Measurement Label: IC50
Note: a bare number is incomplete; add the unit.

Give recorded IC50 with HDAC 4 (Homo sapiens) for the following compound: C/C=C1\NC(=O)[C@@H](CS)NC(=O)[C@@H](C(C)C)NC(=O)C[C@@H](/C=C/CCS)OC(=O)[C@H](C(C)C)NC1=O [Red-FK228, reference compound]
647 nM

====

Measured Target: HDAC 8 (Homo sapiens)
Sequence (Q9BY41 whole entry): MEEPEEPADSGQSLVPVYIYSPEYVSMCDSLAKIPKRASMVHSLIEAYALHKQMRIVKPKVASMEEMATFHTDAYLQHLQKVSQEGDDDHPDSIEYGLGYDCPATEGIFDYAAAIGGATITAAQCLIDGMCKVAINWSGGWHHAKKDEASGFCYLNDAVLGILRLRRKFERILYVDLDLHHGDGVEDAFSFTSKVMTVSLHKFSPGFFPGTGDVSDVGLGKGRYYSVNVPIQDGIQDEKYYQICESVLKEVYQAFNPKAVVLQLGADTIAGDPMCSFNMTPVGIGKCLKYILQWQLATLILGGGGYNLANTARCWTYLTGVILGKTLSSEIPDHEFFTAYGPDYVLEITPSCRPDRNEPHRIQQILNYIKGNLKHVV
Method Summary: enzymatic inhibition of HDAC 8
Type: biochemical
Reported Conditions: HDAC 8, Class I; read-out: IC50
Measurement Label: IC50 (nM)
Answers are plain numbers, in nM.

What IC50 value was documented for this molecule, CC(C)[C@@H]1NC(=O)C(C)(C)NC(=O)c2csc(n2)CNC(=O)C[C@@H](/C=C/CCS)OC1=O ?
49

====

Measured Target: HDAC 6 (Homo sapiens)
Method Summary: enzymatic inhibition of HDAC 6
Assay type: biochemical
Reported Conditions: HDAC 6, Class IIb; read-out: IC50
Measurement Label: IC50 (µM)
Answers are plain numbers, in µM.

What IC50 value was documented for this molecule, CC(C)[C@@H]1NC(=O)C(C)(C)NC(=O)c2csc(n2)CNC(=O)C[C@@H](/C=C/CCS)OC1=O ?
0.047

====

Measured Target: HDAC 9 (Homo sapiens, UniProt Q9UKV0)
Sequence (Q9UKV0 whole entry): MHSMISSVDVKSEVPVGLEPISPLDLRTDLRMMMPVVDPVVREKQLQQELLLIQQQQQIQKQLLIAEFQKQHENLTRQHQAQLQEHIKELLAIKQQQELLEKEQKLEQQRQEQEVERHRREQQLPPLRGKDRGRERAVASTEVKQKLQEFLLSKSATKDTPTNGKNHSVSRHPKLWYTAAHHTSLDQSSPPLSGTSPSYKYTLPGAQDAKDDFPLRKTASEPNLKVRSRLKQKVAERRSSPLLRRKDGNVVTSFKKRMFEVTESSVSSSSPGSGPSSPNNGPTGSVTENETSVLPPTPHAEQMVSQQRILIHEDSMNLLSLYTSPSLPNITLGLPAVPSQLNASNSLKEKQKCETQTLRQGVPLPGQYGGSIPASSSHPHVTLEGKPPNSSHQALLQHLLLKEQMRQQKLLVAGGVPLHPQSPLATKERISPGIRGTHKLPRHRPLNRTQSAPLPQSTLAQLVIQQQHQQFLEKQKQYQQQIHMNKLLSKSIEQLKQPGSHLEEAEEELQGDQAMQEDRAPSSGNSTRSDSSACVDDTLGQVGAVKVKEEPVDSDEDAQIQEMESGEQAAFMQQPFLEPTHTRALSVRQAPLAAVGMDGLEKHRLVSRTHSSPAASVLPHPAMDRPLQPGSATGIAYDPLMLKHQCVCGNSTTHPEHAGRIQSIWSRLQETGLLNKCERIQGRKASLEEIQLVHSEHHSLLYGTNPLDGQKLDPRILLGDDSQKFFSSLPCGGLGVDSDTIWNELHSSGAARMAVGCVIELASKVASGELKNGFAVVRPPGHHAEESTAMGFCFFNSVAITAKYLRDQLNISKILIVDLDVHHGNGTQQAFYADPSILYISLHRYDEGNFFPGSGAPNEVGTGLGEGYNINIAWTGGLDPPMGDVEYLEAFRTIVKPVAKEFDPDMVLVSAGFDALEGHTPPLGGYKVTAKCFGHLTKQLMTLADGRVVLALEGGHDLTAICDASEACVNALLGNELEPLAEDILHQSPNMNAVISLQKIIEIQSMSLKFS
Method Summary: enzymatic inhibition of HDAC 9
Type: biochemical
pIC50: −log10 of the molar value.
Measurement Label: pIC50

What pIC50 value was documented for this compound, C/C=C1\NC(=O)[C@@H](CS)NC(=O)[C@@H](C(C)C)NC(=O)C[C@@H](/C=C/CCS)OC(=O)[C@H](C(C)C)NC1=O [Red-FK228, reference compound] ?
< 6.00

====

Measured Target: HDAC 5 (Homo sapiens)
Sequence (Q9UQL6 whole entry): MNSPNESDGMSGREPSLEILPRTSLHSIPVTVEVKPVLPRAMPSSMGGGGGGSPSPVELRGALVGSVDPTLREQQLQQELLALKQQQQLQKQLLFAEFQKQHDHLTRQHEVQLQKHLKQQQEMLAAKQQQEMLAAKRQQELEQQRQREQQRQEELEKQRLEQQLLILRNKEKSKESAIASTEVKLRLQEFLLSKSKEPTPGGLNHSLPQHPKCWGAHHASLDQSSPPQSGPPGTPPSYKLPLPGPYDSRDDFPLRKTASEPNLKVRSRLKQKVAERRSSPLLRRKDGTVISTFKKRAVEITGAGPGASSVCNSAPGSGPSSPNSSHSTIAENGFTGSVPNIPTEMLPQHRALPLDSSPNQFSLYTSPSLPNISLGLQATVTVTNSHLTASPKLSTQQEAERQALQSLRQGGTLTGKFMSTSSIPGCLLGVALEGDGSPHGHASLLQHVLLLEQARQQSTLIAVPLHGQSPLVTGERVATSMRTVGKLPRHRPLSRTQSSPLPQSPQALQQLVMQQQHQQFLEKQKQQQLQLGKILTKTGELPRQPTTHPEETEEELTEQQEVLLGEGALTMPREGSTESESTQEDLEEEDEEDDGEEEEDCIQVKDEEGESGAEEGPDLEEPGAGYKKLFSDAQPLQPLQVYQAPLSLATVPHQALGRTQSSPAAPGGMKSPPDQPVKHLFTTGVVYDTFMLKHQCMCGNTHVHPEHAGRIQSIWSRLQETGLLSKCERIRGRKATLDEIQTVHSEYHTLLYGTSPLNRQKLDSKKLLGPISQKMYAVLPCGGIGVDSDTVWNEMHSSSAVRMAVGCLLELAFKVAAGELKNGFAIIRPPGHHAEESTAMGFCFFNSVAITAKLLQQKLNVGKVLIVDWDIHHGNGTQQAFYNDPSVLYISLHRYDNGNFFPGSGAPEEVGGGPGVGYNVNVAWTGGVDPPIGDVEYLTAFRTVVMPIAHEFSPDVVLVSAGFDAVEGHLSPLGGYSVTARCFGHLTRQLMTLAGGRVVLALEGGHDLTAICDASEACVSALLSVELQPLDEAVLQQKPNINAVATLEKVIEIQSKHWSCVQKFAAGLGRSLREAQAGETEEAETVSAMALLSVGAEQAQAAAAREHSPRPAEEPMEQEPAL
Method Summary: enzymatic inhibition of HDAC 5
Assay type: biochemical
Measurement Label: IC50

What IC50 value was documented for this molecule, C/C=C1\NC(=O)[C@@H](CS)NC(=O)[C@@H](C(C)C)NC(=O)C[C@@H](/C=C/CCS)OC(=O)[C@H](C(C)C)NC1=O [Red-FK228, reference compound] ?
> 1000 nM

====

Measured Target: UniProt:Q9UQL6
Method Summary: enzymatic inhibition of HDAC 5
Format: biochemical
Reported Conditions: HDAC 5, Class IIa; read-out: IC50
pIC50: −log10 of the molar value.
Measurement Label: pIC50

What pIC50 value was documented for this compound, CC(C)[C@@H]1NC(=O)C(C)(C)NC(=O)c2csc(n2)CNC(=O)C[C@@H](/C=C/CCS)OC1=O ?
< 6.00

====

Measured Target: HDAC 3 (Homo sapiens)
Sequence (O15379 whole entry): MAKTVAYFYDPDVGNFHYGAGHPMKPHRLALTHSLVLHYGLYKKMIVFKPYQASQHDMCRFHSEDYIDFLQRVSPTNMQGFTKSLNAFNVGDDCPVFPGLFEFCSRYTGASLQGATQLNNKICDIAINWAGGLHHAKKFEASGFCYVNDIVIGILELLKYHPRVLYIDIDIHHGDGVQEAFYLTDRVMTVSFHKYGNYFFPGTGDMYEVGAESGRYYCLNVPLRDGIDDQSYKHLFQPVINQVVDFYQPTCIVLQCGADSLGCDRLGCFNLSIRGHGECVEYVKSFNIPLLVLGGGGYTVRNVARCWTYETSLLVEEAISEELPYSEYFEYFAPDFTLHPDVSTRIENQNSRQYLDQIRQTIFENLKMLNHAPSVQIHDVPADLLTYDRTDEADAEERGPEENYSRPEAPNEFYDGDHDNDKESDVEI
Sequence (Q9Y618 395-489 partner limits assumed): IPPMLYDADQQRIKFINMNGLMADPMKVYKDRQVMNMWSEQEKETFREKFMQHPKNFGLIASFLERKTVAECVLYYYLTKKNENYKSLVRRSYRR
Method Summary: enzymatic inhibition of HDAC 3
Format: biochemical
Reported Conditions: HDAC 3, Class I
Measurement Label: pIC50
Numbers only, as −log10 of the molar value.

What pIC50 value was documented for this compound, CC(C)[C@@H]1NC(=O)C(C)(C)NC(=O)c2csc(n2)CNC(=O)C[C@@H](/C=C/CCS)OC1=O ?
8.70

====

Measured Target: HDAC 6 (Homo sapiens)
Sequence (Q9UBN7 1-1215): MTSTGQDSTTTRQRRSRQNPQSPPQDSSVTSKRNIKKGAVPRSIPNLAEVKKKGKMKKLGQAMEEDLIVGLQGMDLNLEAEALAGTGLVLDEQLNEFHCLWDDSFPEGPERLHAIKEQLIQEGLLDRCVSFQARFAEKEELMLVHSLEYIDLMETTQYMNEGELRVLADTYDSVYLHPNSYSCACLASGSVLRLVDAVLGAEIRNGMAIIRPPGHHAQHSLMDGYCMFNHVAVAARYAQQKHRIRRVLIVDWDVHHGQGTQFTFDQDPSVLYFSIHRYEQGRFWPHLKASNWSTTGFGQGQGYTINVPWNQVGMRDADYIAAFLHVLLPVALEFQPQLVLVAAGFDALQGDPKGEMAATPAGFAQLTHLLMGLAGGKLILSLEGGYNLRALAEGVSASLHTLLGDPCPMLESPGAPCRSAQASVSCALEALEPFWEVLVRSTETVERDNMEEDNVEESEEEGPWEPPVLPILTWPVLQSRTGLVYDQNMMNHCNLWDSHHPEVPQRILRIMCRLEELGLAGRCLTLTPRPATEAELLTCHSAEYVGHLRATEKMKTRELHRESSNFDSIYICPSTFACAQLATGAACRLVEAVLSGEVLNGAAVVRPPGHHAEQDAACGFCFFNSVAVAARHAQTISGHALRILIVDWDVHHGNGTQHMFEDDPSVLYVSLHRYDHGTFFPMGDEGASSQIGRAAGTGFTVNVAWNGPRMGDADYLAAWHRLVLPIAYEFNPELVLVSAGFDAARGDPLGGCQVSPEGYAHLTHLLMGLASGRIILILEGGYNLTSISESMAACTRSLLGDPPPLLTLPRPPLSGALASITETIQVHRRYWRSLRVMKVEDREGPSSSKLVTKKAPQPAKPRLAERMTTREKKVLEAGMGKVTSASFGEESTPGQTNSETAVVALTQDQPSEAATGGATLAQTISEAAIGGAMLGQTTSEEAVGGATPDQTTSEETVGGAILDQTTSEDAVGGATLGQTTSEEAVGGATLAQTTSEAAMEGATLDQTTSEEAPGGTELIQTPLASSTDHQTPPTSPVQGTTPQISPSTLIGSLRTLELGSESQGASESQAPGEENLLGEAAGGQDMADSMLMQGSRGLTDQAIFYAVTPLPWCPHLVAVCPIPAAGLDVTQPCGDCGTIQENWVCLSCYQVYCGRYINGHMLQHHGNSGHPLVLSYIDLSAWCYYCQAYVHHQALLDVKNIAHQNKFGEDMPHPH
Method Summary: enzymatic inhibition of HDAC 6
Format: biochemical
Measurement Label: IC50 (nM)
One number for each entry, in nM.

Give recorded IC50 with HDAC 6 (Homo sapiens) for the following compound: C/C=C1\NC(=O)[C@@H](CS)NC(=O)[C@@H](C(C)C)NC(=O)C[C@@H](/C=C/CCS)OC(=O)[C@H](C(C)C)NC1=O [Red-FK228, reference compound]
226
